Experimental system: T1, hCD47-ECD/Fc protein (Sinobiological) (human, UniProt Q08722 19-139, biotinylated in the Octet assay, sites not stated)
T1 construct: extracellular domain; Bought protein; also called human CD47-Fc antigen; recombinant hCD47-ECD/Fc; not shown: Fc part of the bought fusion protein
T1 sequence (Q08722 19-139 limits assumed): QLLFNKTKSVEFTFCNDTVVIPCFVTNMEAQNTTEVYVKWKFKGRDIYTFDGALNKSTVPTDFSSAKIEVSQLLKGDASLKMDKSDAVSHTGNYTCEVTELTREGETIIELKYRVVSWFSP
Experiment summary: competition ELISA vs biotin-hSIRPα-ECD/His on coated hCD47-ECD/Fc, experiment 1
Assay endpoint: IC50 (nM)
Numeric only. Scale: nM

For orientation, consider the following solved cases.
TY25030 (antibody, V domains shown) VH: EVQLVESGGGLVQPGGSLRLSCAASGYSITSGYYWSWIRQAPGKGLEWIGEIYHSGNTYYNPSLKSRVTISRDNSKNTLYLQLNSLRAEDTAVYYCARRVPLGAFDYWGQGTLVTVSS VL: DIQLTQSPSSLSASVGDRVTITCRASQTVISRYLAWYQQKPGKAPKLLIYDASNLETGVPSRFSGSGSGTDFTLTISSLQPEDFATYYCQQYYAWPLTFGQGTKVEIKR    21.7
TY25035 (antibody, V domains shown) VH: EVQLVESGGGLVQPGGSLRLSCAASGYSISSGYHWDWIRQAPGKGLEWLARIYWDGDKRYSPSLKSRLTISRDNSKNTLYLQLNSLRAEDTAVYYCARFSDGFDPWGQGTLVTVSS VL: EIVLTQSPATLSLSPGERATLSCRASQSVDFVGISFLHWYQQKPGQAPRLLIYDASNRATGIPARFSGSGSGTDFTLTISSLEPEDFAVYYCVQGLQWPHTFGQGTKVEIKR    60.6

Consider the additional binder presented here.
Input TY25034 (antibody, V domains shown) VH: EVQLVESGGGLVQPGGSLRLSCAASGYSITSGHYWNWIRQAPGKGLEWIGIISPSGGGTKYAQKFQGRVTISRDNSKNTLYLQLNSLRAEDTAVYYCARGARGYYALDYWGQGTLVTVSS VL: EIVLTQSPATLSLSPGERATLSCRASQSVRGRLLAWYQQKPGQAPRLLIYAASSLQSGVPARFSGSGSGTDFTLTISSLEPEDFAVYYCAQYLELPYTFGQGTKVEIKR . Output IC50: 3.53
